Collected inhibition values appear next to each entry.
- assay_protocol: PhoP-dependent GFP reporter repression – Salmonella Typhimurium, primary screen (AID 1863);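 note: 0% = low Mg2+ inducing control and 100% = high Mg2+ repressing control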
- condition_description: S. Typhimurium PhoP-regulated promoter GFP reporter, 4 h; at 50 µM; stronger effect = higher value
The campaign covered roughly 300,000 compounds. About 480 (0.16%) were called active. Only a sample is shown. Entries with a potency or affinity are not part of this list.
Give just the numeric value; % need not be written.

Solved entries (count: 4):
In [3]: df
Out[3]:
                                   compound  readout_name  recorded_result
0    Cc1cc(C)cc(CN2C(=O)NC3(CCCCCC3)C2=O)c1    inhibition            -9.68
1               CC1(C)Cn2c(nnc2-c2ccccc2)S1    inhibition            -3.09
2  CCCCC(c1nnnn1C1CCCC1)N1CCN(C(=O)c2ccco2)CC1 (stereo unspecified)    inhibition            -4.03
3   Cc1cc(C)n(CCNS(=O)(=O)c2ccc(C)c(C)c2)n1    inhibition             5.17

Would you mind telling me what inhibition value was observed for `CN1CCCN(C(=O)c2cccc3ccccc23)CC1` ?
-0.73

Would you mind telling me what inhibition value was observed for `CCNC(=S)Nc1ccc(-c2nc3ccccc3[nH]2)cc1` ?
-10.4

====

- assay_protocol: PhoP-dependent GFP reporter repression – Salmonella Typhimurium, primary screen (AID 1863);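 note: 0% = low Mg2+ inducing control and 100% = high Mg2+ repressing control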
- condition_description: S. Typhimurium PhoP-regulated promoter GFP reporter, 4 h; at 50 µM; stronger effect = higher value
Screen size: about 300,000 compounds; about 480 (0.16%) were called active. A selection follows. Entries with a potency or affinity are not part of this list.
Collected inhibition values appear next to each entry.

Solved entries (count: 2):
>>> df
                                   compound  readout_name    recorded_result
0  O=S(=O)(c1ccc2c(c1)OCCO2)N1CCN(Cc2ccc3c(c2)OCO3)CC1    inhibition  -0.33% (inactive)
1      COc1cnc(-c2cccc(C(F)(F)F)c2)[nH]c1=O    inhibition  -6.31% (inactive)

Would you mind telling me what inhibition value was observed for `O=C1CN(/N=C/c2ccc([N+](=O)[O-])o2)C(=O)N1` ?
-5.89% (inactive)

Would you mind telling me what inhibition value was observed for CCCn1cnnc1CNC(=O)C1CCC(=O)N(CCCc2ccccc2)C1 (centres undefined) ?
2.57% (inactive)

====

- assay_protocol: PhoP-dependent GFP reporter repression – Salmonella Typhimurium, primary screen (AID 1863);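 note: 0% = low Mg2+ inducing control and 100% = high Mg2+ repressing control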
- condition_description: S. Typhimurium PhoP-regulated promoter GFP reporter, 4 h; at 50 µM; stronger effect = higher value
About 480 (0.16%) of roughly 300,000 compounds were called active. The list is a sample of the results. Entries with a potency or affinity are not part of this list.
Collected inhibition values appear next to each entry.
Give just the numeric value; % need not be written.

                                   molecule  recorded_result
0          NCCCC[C@H]1CN=C(N)N1CCCCC1CCCCC1             11.9
1  NC1=NC[C@@H](Cc2ccc(O)cc2)N1CCC12CC3CC(CC(C3)C1)C2            -0.89
2  O=C(c1cnc2n(c1=O)CCS2)N1CCN(C(c2ccccc2)c2ccc(Cl)cc2)CC1 (centres undefined)             3.09

Query molecule follows.
Would you mind telling me what inhibition value was observed for `COC(=O)CCC(=O)N1CN2CN(C(=O)CCC(=O)OC)CC([N+](=O)[O-])(C2)C1` ?
-5.21

====

- assay_protocol: PhoP-dependent GFP reporter repression – Salmonella Typhimurium, primary screen (AID 1863);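 note: 0% = low Mg2+ inducing control and 100% = high Mg2+ repressing control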
- condition_description: S. Typhimurium PhoP-regulated promoter GFP reporter, 4 h; at 50 µM; stronger effect = higher value
About 480 (0.16%) of roughly 300,000 compounds were called active. A selection follows. Potency and affinity values are given separately.
readout_name: inhibition

Solved entries (count: 5):
compound	inhibition
CCOC(=O)Cn1cnc2sc(C(=O)OC)c(C)c2c1=O	-1.36% (inactive)
S=C(Nc1ccccc1Cl)N(Cc1ccccc1)Cc1cccnc1	4.33% (inactive)
Cc1nn(C)c(C(=O)N/N=C/c2cccc(Oc3ccccc3)c2)c1Br	8.95% (inactive)
Cc1ccc(NS(=O)(=O)c2ccc3c(c2)NC(=O)CCS3)cc1F	4.54% (inactive)
CCn1nc(C)c(/C=N/NC(=O)Cn2nc(C)cc2C)c1C	-4.2% (inactive)

Would you mind telling me what inhibition value was observed for `N=c1n(CC(=O)c2ccc([N+](=O)[O-])cc2)c2ccccc2n1Cc1ccccc1` ?
39% (inactive)

Would you mind telling me what inhibition value was observed for `Oc1ccc(/C=N/Nc2nccnc2Cl)cc1` ?
5.13% (inactive)

Would you mind telling me what inhibition value was observed for O=C(O)[C@@H]1CSC2c3ccccc3C(=O)N21 (stereo partly drawn) ?
-0.36% (inactive)

Would you mind telling me what inhibition value was observed for `CCCCSc1nc2c(=O)[nH][nH]c(=O)c2n1Cc1ccccc1` ?
-7.79% (inactive)

Would you mind telling me what inhibition value was observed for `O=C(/C=C/c1ccc([N+](=O)[O-])cc1)NCCc1ccccc1` ?
6.48% (inactive)

Would you mind telling me what inhibition value was observed for `CCCCNC(=O)c1cc(-c2ccc(OC)c(OC)c2)on1` ?
3.01% (inactive)

Would you mind telling me what inhibition value was observed for `CC1(C)S/C(=N/N=C/c2cccs2)NC1=O` ?
0.99% (inactive)

Would you mind telling me what inhibition value was observed for `CCOC(=O)C1=C(O)/C(=C/c2cccc(OC)c2O)N=C1C` ?
-9.18% (inactive)

Would you mind telling me what inhibition value was observed for `CCCCCCCCC[n+]1cccc2c3ccccc3ccc21` ?
-3.12% (inactive)

Would you mind telling me what inhibition value was observed for CCc1nccn1CCC(=O)N1CCCC(N2CCN(c3cccc(Cl)c3)CC2)C1 (stereo not drawn) ?
-2.69% (inactive)

Would you mind telling me what inhibition value was observed for CC1=C(C(N)=O)C(c2ccccn2)n2nc(SCc3ccccc3)nc2N1 (stereo not drawn) ?
1.82% (inactive)

Would you mind telling me what inhibition value was observed for `COc1ccc(-n2c(SCc3cccnc3)nc3c(c2=O)SCC3)cc1OC` ?
-5.3% (inactive)

Would you mind telling me what inhibition value was observed for `O=C(COC(=O)c1ccncc1)NCc1ccccc1` ?
-7.25% (inactive)

Would you mind telling me what inhibition value was observed for COc1ccc(CCN2CC(C(=O)NCCc3ccccc3)CC2=O)cc1OC (stereo not drawn) ?
6.87% (inactive)

Would you mind telling me what inhibition value was observed for `CN(C)S(=O)(=O)c1cccc(NC(=O)c2ccc(S(=O)(=O)N3CCCC3)cc2)c1` ?
-7.11% (inactive)

Would you mind telling me what inhibition value was observed for `C#CCOCCOCCOCCNc1nc(N2CCN(C(=O)CCCCCCCCCCNC(=O)[C@H](CCCCN)n3cc(C)nn3)CC2)nc(N2CCN(C(=O)CCCCCCCCCCNC(=O)[C@H](CCCN=C(N)N)n3cc(C[C@@H](C)CC)nn3)CC2)n1` ?
23.8% (inactive)

Would you mind telling me what inhibition value was observed for COc1ccc(C(=O)Nc2ccccc2C(=O)N2CCCCC2C)cc1 (stereo not drawn) ?
-7.49% (inactive)

====

Collected inhibition values appear next to each entry.
- assay_protocol: PhoP-dependent GFP reporter repression – Salmonella Typhimurium, primary screen (AID 1863);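 note: 0% = low Mg2+ inducing control and 100% = high Mg2+ repressing control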
- condition_description: S. Typhimurium PhoP-regulated promoter GFP reporter, 4 h; at 50 µM; stronger effect = higher value
The whole screen tested about 300,000 compounds, of which about 480 (0.16%) were called active. Not all results are given here. Measured potencies and affinities stand elsewhere.
Give just the numeric value; % need not be written.

Solved entries (count: 5):
compound	recorded_result
CCOc1ccc(C(=O)OCC(=O)NCCCc2ccccc2)cc1	-6.34
CN1C(C(=O)Nc2ncccn2)=C(O)c2ccccc2S1(=O)=O	5.72
Cn1c(=O)c(C(=O)NNC(=O)c2ccccc2Cl)c(O)c2ccccc21	3.12
COc1ccccc1C(C[N+](=O)[O-])c1c(N)n(C)c(=O)n(C)c1=O (stereo unspecified)	2.03
Cc1ccc2nc(N(CCCN(C)C)C(=O)CCc3ccccc3)sc2c1	-4.17

Would you mind telling me what inhibition value was observed for `CCn1nc(C(=O)N2CCN(Cc3ccc4c(c3)OCO4)CC2)c2ccccc2c1=O` ?
-2.79

Would you mind telling me what inhibition value was observed for `Cn1c(CNC(=O)c2ccc3c(c2)OCO3)nnc1SCC(=O)Nc1ccc(F)cc1` ?
2.02

Would you mind telling me what inhibition value was observed for `COc1ccc(S(=O)(=O)n2oc(=O)cc2-c2ccccc2)cc1` ?
-4.7

Would you mind telling me what inhibition value was observed for `Cn1cc(S(=O)(=O)NC2CCCCC2)c(=O)n(C)c1=O` ?
-6.38

Would you mind telling me what inhibition value was observed for CCC/C=C1/CCCOC(C(=O)NCc2ccccn2)(C(F)(F)F)C1 (stereo unspecified) ?
4.57

Would you mind telling me what inhibition value was observed for `Cc1cc[n+](CC[n+]2ccc(C)cc2)cc1` ?
6.23

Would you mind telling me what inhibition value was observed for `CCCCCCOc1ccc(C(=O)O)cc1` ?
-7.54

Would you mind telling me what inhibition value was observed for `O=C(N/N=C/c1ccc[nH]1)c1cccc([N+](=O)[O-])c1` ?
2.02
